- Tested on: Cell membrane
- test protocol: Induction of membrane disruption in Staphylococcus aureus ATCC 25923 measured after 2 hrs by propidium iodide staining based confocal laser scanning microscopic analysis
- Type: subcellular
The source made the active and inactive calls. No cut-off for these calls is given here. Positions of bridges follow the written chain, without caps; N, C: chain ends. Non-standard residues stand in square brackets, D forms with d. Residues, ends and D or L forms follow the SMILES beside them. *: point of attachment. Myristoyl = CCCCCCCCCCCCCC(=O)*; Lauroyl = CCCCCCCCCCCC(=O)*; X1 = CC[C@H](C)CCCCC(=O)*; Dab = NCC[C@H](N)C(=O)O
I would appreciate it if you answered using one of these outcomes: 1.0 (active), 0.0 (inactive)

Test call, this compound: "O=C(O)c1cn(C2CC2)c2cc(N3CCNCC3)c(F)cc2c1=O"
0.0

Repeat with CCCCCCCCCCCCCC(=O)N[C@@H](CCCNC(=N)N)C(=O)N[C@@H](Cc1c[nH]c2ccccc12)C(=O)N[C@@H](Cc1c[nH]c2ccccc12)C(N)=O (Myristoyl-Arg-Trp-Trp-NH2)
1.0

Repeat with CCCCCCCCCCCC(=O)N[C@@H](CCCNC(=N)N)C(=O)N[C@@H](CCCNC(=N)N)C(=O)N[C@@H](Cc1c[nH]c2ccccc12)C(N)=O (Lauroyl-Arg-Arg-Trp-NH2)
1.0

Repeat with CC[C@H](C)CCCCC(=O)N[C@@H](CCN)C(=O)N[C@H](C(=O)N[C@@H](CCN)C(=O)N[C@H]1CCNC(=O)[C@H]([C@@H](C)O)NC(=O)[C@H](CCN)NC(=O)[C@H](CCN)NC(=O)[C@H](CC(C)C)NC(=O)[C@@H](Cc2ccccc2)NC(=O)[C@H](CCN)NC1=O)[C@@H](C)O (X1-[Dab]T[Dab][Dab][Dab][dF]L[Dab][Dab]T; lactam 4-C)
0.0
